TESTED_TARGET: hERG (KCNH2) (Homo sapiens, UniProt Q12809)
Sequence (Q12809 whole entry): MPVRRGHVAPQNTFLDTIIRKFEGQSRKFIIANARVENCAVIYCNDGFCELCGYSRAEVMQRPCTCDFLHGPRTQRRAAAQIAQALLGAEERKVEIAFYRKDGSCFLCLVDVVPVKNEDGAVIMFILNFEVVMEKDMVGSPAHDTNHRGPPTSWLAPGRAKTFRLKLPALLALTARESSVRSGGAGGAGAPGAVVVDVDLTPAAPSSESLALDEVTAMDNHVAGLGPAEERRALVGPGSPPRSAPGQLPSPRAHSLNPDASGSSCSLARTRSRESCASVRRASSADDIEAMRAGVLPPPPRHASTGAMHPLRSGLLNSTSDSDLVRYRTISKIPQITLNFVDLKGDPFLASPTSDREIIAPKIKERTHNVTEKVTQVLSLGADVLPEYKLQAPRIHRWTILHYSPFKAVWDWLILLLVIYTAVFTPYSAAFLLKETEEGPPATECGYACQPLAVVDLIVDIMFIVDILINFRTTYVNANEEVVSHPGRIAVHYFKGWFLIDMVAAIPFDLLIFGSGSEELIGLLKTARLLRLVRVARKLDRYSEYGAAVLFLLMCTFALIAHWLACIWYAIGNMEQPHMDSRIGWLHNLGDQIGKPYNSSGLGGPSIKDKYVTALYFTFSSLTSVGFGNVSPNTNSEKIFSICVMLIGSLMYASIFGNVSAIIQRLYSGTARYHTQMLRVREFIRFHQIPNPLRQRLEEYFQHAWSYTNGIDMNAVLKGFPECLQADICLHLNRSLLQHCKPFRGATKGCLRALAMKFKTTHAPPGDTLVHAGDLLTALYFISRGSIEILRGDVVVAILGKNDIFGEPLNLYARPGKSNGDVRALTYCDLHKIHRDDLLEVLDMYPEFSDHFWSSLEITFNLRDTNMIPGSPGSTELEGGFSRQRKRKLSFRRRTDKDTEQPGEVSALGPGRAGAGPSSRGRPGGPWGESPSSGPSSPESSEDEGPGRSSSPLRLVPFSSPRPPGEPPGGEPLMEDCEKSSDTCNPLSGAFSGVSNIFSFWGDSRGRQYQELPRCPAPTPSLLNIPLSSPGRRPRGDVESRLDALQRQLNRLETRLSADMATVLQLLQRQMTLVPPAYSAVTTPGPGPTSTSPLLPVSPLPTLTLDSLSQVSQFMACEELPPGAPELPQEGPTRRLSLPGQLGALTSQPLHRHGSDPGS
PROCEDURE_DETAILS: Inhibition of human ERG expressed in CHO cells at 11 uM at -70mV holding potential measured after 300 secs by IonWorks electrophysiology method relative to control
Type: cell-based
TEST_CONDITIONS: CHO cells expressing human ERG
EXPERIMENTAL_ENDPOINT: inhibition at 5 min, 11 µM (%)
Form entry: value (%) — number only.

Consider the worked cases shown below.
Task item: Fill in reported inhibition at 5 min, 11 µM for this entry: Nc1ncc(-c2ccc(C3(c4noc(-c5cnn(C6COC6)c5)n4)CCC3)cc2)cn1
Reply: 43

Task item: Tell us which inhibition at 5 min, 11 µM value is on record for CC1(O)CN(c2nc([C@@](C)(c3ccc(-c4cnc(N)nc4)cc3)C3CC3)no2)C1
Reply: 13

Task item: Name the recorded inhibition at 5 min, 11 µM of the compound listed here: Cn1cc(-c2nc(C3(c4ccc(-c5cnc(N)nc5)cc4)CCC3)no2)cn1
Reply: 25

Turning now to a further record.
Task item: For the compound Cn1cc(-c2nc(C3(c4ccc(-c5cnc(N)nc5)nc4)CCC3)no2)cn1 , give its reported inhibition at 5 min, 11 µM.
Reply: 11

----------
TESTED_TARGET: hERG (KCNH2) (Homo sapiens)
PROCEDURE_DETAILS: Inhibition of human ERG expressed in HEK293 cells at 37 uM by whole-cell patch clamp method relative to control
Assay type: cell-based
TEST_CONDITIONS: HEK293 cells expressing human ERG
EXPERIMENTAL_ENDPOINT: inhibition at 37 µM (%)
Numeric answer only, unit % assumed.

Task item: Identify the reported inhibition at 37 µM for the following entry. CC(C)[C@](C)(c1ccc(-c2cnc(N)nc2)nc1)c1noc(-c2cnn(CC#N)c2)n1
Reply: 38

----------
TESTED_TARGET: Arachidonate 5-lipoxygenase-activating protein (Homo sapiens, UniProt P20292)
Sequence (P20292 whole entry): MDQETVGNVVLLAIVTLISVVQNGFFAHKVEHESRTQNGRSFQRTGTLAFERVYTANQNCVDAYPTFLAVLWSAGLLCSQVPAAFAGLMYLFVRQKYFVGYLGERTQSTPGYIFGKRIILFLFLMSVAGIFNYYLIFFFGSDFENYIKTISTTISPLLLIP
PROCEDURE_DETAILS: Displacement of [125I]-L-691831 from human FLAP expressed in Sf9 cell membranes after 2 hrs by Topcount method
EXPERIMENTAL_ENDPOINT: IC50 (nM)
The reply should contain only the number, in nM.

Some solved entries appear below for comparison.
Task item: Please give the documented IC50 of CC(C)[C@](C)(c1ccc(-c2cnc(N)nc2)nc1)c1noc(-c2cnn(CC(C)(C)O)c2)n1
Reply: 13

Task item: Tell me measured IC50 for CC1(O)CCN(c2nc(C3(c4ccc(-c5cnc(N)nc5)cc4)CCC3)no2)CC1 please.
Reply: 17

Task item: Please give the documented IC50 of Nc1ncc(-c2ccc(C3(c4noc(N5CCN(CC6CCCO6)CC5)n4)CCC3)cc2)cn1 (centres undefined)
Reply: 92

Let us move to another entry and its IC50.
Task item: Supply IC50 value. Item: Nc1ncc(-c2ccc(C3(c4noc(N5CCC(CO)CC5)n4)CCC3)cc2)cn1
Reply: 46

----------
TESTED_TARGET: hERG (KCNH2) (Homo sapiens)
PROCEDURE_DETAILS: Inhibition of human ERG expressed in HEK293 cells at 30 uM by whole-cell patch clamp method relative to control
Assay type: cell-based
TEST_CONDITIONS: HEK293 cells expressing human ERG
EXPERIMENTAL_ENDPOINT: inhibition at 30 µM (%)
Give just the number in %; leave the unit off.

Task item: # return recorded inhibition at 30 µM for input CC(C)[C@](C)(c1ccc(-c2cnc(N)nc2)nc1)c1noc(-c2cnn(CC(C)(C)O)c2)n1
Reply: 21

Continuing:
Task item: Check the records and state inhibition at 30 µM for CC(C)[C@](C)(c1ccc(-c2cnc(N)nc2)nc1)c1noc(-c2cnn(C3COC3)c2)n1
Reply: 24

----------
PROCEDURE_DETAILS: Mean residence time in Wistar rat at 1 mg/kg, iv by HPLC-MS/MS analysis
Assay type: ADME, organism-based
TEST_CONDITIONS: in vivo
EXPERIMENTAL_ENDPOINT: MRT (h)
Write it as a number; the unit h goes unstated.

Task item: # return recorded MRT for input C[C@@](c1ccc(-c2cnc(N)nc2)cc1)(c1noc(N2CCC(O)CC2)n1)C1CC1
Reply: 1.6

----------
PROCEDURE_DETAILS: Mean residence time in Sprague-Dawley rat at 1 mg/kg, iv by HPLC-MS/MS analysis
Type: ADME, organism-based
TEST_CONDITIONS: in vivo
EXPERIMENTAL_ENDPOINT: MRT (h)
Enter your answer as a number in h; do not include the unit.

Task item: Answer with the recorded MRT of CC(C)[C@](C)(c1ccc(-c2cnc(N)nc2)nc1)c1noc(-c2cnn(CC(C)(C)O)c2)n1 only.
Reply: 4.6

----------
Collected inhibition at 5 min, 14 µM values appear next to each entry.
TESTED_TARGET: hERG (KCNH2) (Homo sapiens, UniProt Q12809)
PROCEDURE_DETAILS: Inhibition of human ERG expressed in CHO cells at 14 uM at -70mV holding potential measured after 300 secs by IonWorks electrophysiology method relative to control
Format: cell-based
TEST_CONDITIONS: CHO cells expressing human ERG

Task item: Please report inhibition at 5 min, 14 µM for the following molecule: CC(C)(O)CN1CCN(c2nc([C@@](C)(c3ccc(-c4cnc(N)nc4)cc3)C3CC3)no2)CC1
Reply: 26%

Next molecule, please.
Task item: Return the recorded inhibition at 5 min, 14 µM value; entry: CC(C)OC1CCN(c2nc(C3(c4ccc(-c5cnc(N)nc5)cc4)CCC3)no2)CC1
Reply: 85%

----------
TESTED_TARGET: UniProtKB Q12809
PROCEDURE_DETAILS: Inhibition of human ERG expressed in CHO cells at 34 uM at -70mV holding potential measured after 300 secs by IonWorks electrophysiology method relative to control
Format: cell-based
TEST_CONDITIONS: CHO cells expressing human ERG
EXPERIMENTAL_ENDPOINT: inhibition at 5 min, 34 µM

Task item: For the molecule C[C@@](c1ccc(-c2cnc(N)nc2)cc1)(c1noc(N2CCC(O)CC2)n1)C1CC1 , give its reported inhibition at 5 min, 34 µM.
Reply: 30%

----------
TESTED_TARGET: hERG (KCNH2) (Homo sapiens)
PROCEDURE_DETAILS: Inhibition of human ERG expressed in CHO cells at 17 uM at -70mV holding potential measured after 300 secs by IonWorks electrophysiology method relative to control
Format: cell-based
TEST_CONDITIONS: CHO cells expressing human ERG
EXPERIMENTAL_ENDPOINT: inhibition at 5 min, 17 µM (%)
// units = %; emit number, no label

Task item: Write down inhibition at 5 min, 17 µM measured for item Nc1ncc(-c2ccc(C3(c4noc(N5CCC(O)CC5)n4)CCC3)cc2)cn1
Reply: 40

----------
PROCEDURE_DETAILS: Stability in human liver microsomes at 1 uM pretreated for 10 mins followed by NADPH addition after 60 mins by LC/MS analysis relative to hepatic blood flow
Type: ADME, microsome
TEST_CONDITIONS: read-out: Stability
Attribute: hepatic extraction ratio at 1 h, 1 µM

Task item: Identify measured hepatic extraction ratio at 1 h, 1 µM corresponding to CC1(O)CN(c2nc([C@@](C)(c3ccc(-c4cnc(N)nc4)cc3)C3CC3)no2)C1
Reply: < 0.24

Task item: Answer with reported hepatic extraction ratio at 1 h, 1 µM of Nc1ncc(-c2ccc(C3(c4noc(-c5cnn(C6COC6)c5)n4)CCC3)cn2)cn1
Reply: < 0.24

Task item: Please indicate hepatic extraction ratio at 1 h, 1 µM recorded for Cn1cc(-c2nc([C@@](C)(c3ccc(-c4cnc(N)nc4)nc3)C3CC3)no2)cn1
Reply: < 0.3

Task item: Tell us which hepatic extraction ratio at 1 h, 1 µM value is on record for CC(C)(O)Cn1cc(-c2nc(C3(c4ccc(-c5cnc(N)nc5)nc4)CCC3)no2)cn1
Reply: < 0.24

Task item: Provide one value: measured hepatic extraction ratio at 1 h, 1 µM of Nc1ncc(-c2ccc(C3(c4noc(N5CCC(CO)CC5)n4)CCC3)cc2)cn1
Reply: 0.36

Task item: Report measured hepatic extraction ratio at 1 h, 1 µM; entry is CC(C)[C@](C)(c1ccc(-c2cnc(N)nc2)nc1)c1noc(-c2cnn(C)c2)n1
Reply: < 0.3

----------
TESTED_TARGET: hERG (KCNH2) (Homo sapiens)
PROCEDURE_DETAILS: Inhibition of human ERG expressed in HEK293 cells at 34 uM by whole-cell patch clamp method relative to control
Format: cell-based
TEST_CONDITIONS: HEK293 cells expressing human ERG
EXPERIMENTAL_ENDPOINT: inhibition at 34 µM (%)
Respond with the bare value in %.

Task item: Indicate its recorded inhibition at 34 µM; the compound in question is C[C@@](c1ccc(-c2cnc(N)nc2)cc1)(c1noc(N2CCC(O)CC2)n1)C1CC1
Reply: 30
